conditionNotes: 418.15 K; 101.33 kPa; Liquid; Alternating current cell with electrodes
measurementType: electrical conductivity

# example entries with known answers
compound	electrical conductivity
CCCCCC[n+]1ccn(C)c1.O=S(=O)([N-]S(=O)(=O)C(F)(F)F)C(F)(F)F	3.24 S/m
CC(=O)[O-].CCn1cc[n+](C)c1 [1-ethyl-3-methylimidazolium acetate]	6.92 S/m
CCCCn1cc[n+](C)c1.O=S(=O)([N-]S(=O)(=O)C(F)(F)C(F)(F)F)C(F)(F)C(F)(F)F [1-butyl-3-methylimidazolium bis(perfluoroethylsulfonyl)imide]	2.83 S/m

// next item, electrical conductivity requested
*Q* Data request, read-out electrical conductivity, for `CCCCCCCCn1cc[n+](C)c1.O=S(=O)([N-]S(=O)(=O)C(F)(F)F)C(F)(F)F`
*A* 2.42 S/m
